Ref: patent US20160108091A1

- test.system: T1, human APJ receptor (hAPJ) (human, UniProt P35414 1-380)
- T1 sequence (looked up): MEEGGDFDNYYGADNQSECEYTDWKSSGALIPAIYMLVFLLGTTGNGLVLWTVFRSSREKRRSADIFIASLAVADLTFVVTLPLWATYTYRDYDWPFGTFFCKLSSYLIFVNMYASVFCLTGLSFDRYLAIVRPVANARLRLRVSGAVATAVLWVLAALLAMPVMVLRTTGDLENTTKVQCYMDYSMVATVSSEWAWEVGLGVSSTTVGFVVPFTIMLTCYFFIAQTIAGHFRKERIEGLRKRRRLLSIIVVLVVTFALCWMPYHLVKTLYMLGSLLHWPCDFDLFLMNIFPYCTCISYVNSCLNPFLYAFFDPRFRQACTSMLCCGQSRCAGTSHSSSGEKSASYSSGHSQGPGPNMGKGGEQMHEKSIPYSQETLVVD
- experiment: cell-based or functional assay
Bridges are numbered along the chain shown (N, C = ends). [ ]: non-standard residue; d: D form. pGlu = O=C1CC[C@@H](C(=O)O)N1; dNle = CCCC[C@@H](N)C(=O)O; hCys = N[C@@H](CCS)C(=O)O; Nle = CCCC[C@H](N)C(=O)O
The following binders are shown together with reported hAPJ Ca^2+ Flux EC50 values.
The response must be a number in nM with no trailing unit.

Task: Which hAPJ Ca^2+ Flux EC50 value is on record for Ac-[dC]RPRLSCKGP[Nle]PF-OH (disulfide 1-7; SMILES CCCC[C@H](NC(=O)[C@@H]1CCCN1C(=O)CNC(=O)[C@H](CCCCN)NC(=O)[C@@H]1CSSC[C@@H](NC(C)=O)C(=O)N[C@@H](CCCNC(=N)N)C(=O)N2CCC[C@H]2C(=O)N[C@@H](CCCNC(=N)N)C(=O)N[C@@H](CC(C)C)C(=O)N[C@@H](CO)C(=O)N1)C(=O)N1CCC[C@H]1C(=O)N[C@@H](Cc1ccccc1)C(=O)O) [Ac-c*-R-P-R-L-S-C*-K-G-P-Nle-P-F-OH] ?
Output: 21.4

Task: Which hAPJ Ca^2+ Flux EC50 value is on record for Ac-[dC]RPRLS[hCys]KGP[Nle]PF-OH (disulfide 1-7; SMILES CCCC[C@H](NC(=O)[C@@H]1CCCN1C(=O)CNC(=O)[C@H](CCCCN)NC(=O)[C@@H]1CCSSC[C@@H](NC(C)=O)C(=O)N[C@@H](CCCNC(=N)N)C(=O)N2CCC[C@H]2C(=O)N[C@@H](CCCNC(=N)N)C(=O)N[C@@H](CC(C)C)C(=O)N[C@@H](CO)C(=O)N1)C(=O)N1CCC[C@H]1C(=O)N[C@@H](Cc1ccccc1)C(=O)O) [Ac-c*-R-P-R-L-S-hC*-K-G-P-Nle-P-F-OH] ?
Output: 12.2

Task: Which hAPJ Ca^2+ Flux EC50 value is on record for ERPCLSCKGPLVF (pE at 1; D-hC at 4; hC at 7; disulfide 4-7; D-Nle at 11; D-Nva (D-norvaline) at 12; D-Phe (f) at 13; free C-terminal acid) [pE-R-P-(D-hC)*-L-S-hC*-K-G-P-(D-Nle)-(D-Nva)-f-OH] ?
Output: 175

Task: Which hAPJ Ca^2+ Flux EC50 value is on record for [pGlu]RCRLSCKGP[dNle]-NH2 (disulfide 3-7; SMILES CCCC[C@@H](NC(=O)[C@@H]1CCCN1C(=O)CNC(=O)[C@H](CCCCN)NC(=O)[C@@H]1CSSC[C@H](NC(=O)[C@H](CCCNC(=N)N)NC(=O)[C@@H]2CCC(=O)N2)C(=O)N[C@@H](CCCNC(=N)N)C(=O)N[C@@H](CC(C)C)C(=O)N[C@@H](CO)C(=O)N1)C(N)=O) [pE-R-C*-R-L-S-C*-K-G-P-(D-Nle)-NH2] ?
Output: 227

Task: Which hAPJ Ca^2+ Flux EC50 value is on record for Ac-[hCys]RPRLS[hCys]KGP[Nle]PF-OH (disulfide 1-7; SMILES CCCC[C@H](NC(=O)[C@@H]1CCCN1C(=O)CNC(=O)[C@H](CCCCN)NC(=O)[C@@H]1CCSSCC[C@H](NC(C)=O)C(=O)N[C@@H](CCCNC(=N)N)C(=O)N2CCC[C@H]2C(=O)N[C@@H](CCCNC(=N)N)C(=O)N[C@@H](CC(C)C)C(=O)N[C@@H](CO)C(=O)N1)C(=O)N1CCC[C@H]1C(=O)N[C@@H](Cc1ccccc1)C(=O)O) [Ac-hC*-R-P-R-L-S-hC*-K-G-P-Nle-P-F-OH] ?
Output: 11.8
